Molecular target: UniProtKB P07862
Assay: Steady-state kinetics of EcDdl
Attribute Measured: Ki (µM)

N[C@@H]1CONC1=O [DCS, (R)-4-amino-1,2-oxazolidin-3-one]: 44
